- System: M14 melanoma
- experiment: NCI-60 one-dose screen, 48 h
- particulars: 10 µM unless noted
About 83,000 compounds went through this panel and 20% of them were active in at least one assay; those are over-represented in the sample as a whole. The source made the active and inactive calls. The calls were made as follows: active = growth percent below 10; inactive = the rest.
Response enum: active, inactive

Exercise: Hi, do you know how `CCNc1ccc(-c2nc3ccccc3n3cccc23)cc1` came out in this test?
Solution: inactive

Exercise: Look up the recorded call for O=C(NC(Cc1nnc2n(Cc3ccccc3)c(=O)c3c4c(sc3n12)CCCC4)c1ccccc1)c1ccccc1 (stereo not given) in this test.
Solution: inactive

Exercise: What did the test return for `CCOC(=O)c1cc(C(=O)c2cc(OC)c(OC)c(OC)c2)n2ccccc12` ?
Solution: active

Exercise: Fill in: this test's call for `CCOC(=O)/C=C1\S/C(=N\Nc2cc(=O)[nH]c3ccccc23)N(c2ccccc2)C1=O` is ___
Solution: inactive

Exercise: Name the outcome recorded for `CCOC(=O)C(=Cc1ccc(-c2ccccc2)cc1)C(=O)OCC` in the assay.
Solution: inactive

Exercise: Field: outcome | Entry: CC1CCN(C(=O)CCCl)c2ccccc21 (stereo not given)
Solution: inactive

Exercise: Please indicate how the test categorized `O=C(CCl)NNc1nccc(Nc2ccc(S(=O)(=O)Nc3ccncc3)cc2)n1` .
Solution: inactive

Exercise: Would you mind telling me which call this test gave `CC1(C)N=C(N)N=C(N)N1c1ccc(CCCCc2ccccc2)c(Cl)c1` ?
Solution: inactive

Exercise: Which result was noted for this molecule in the test: `CCN(CC)c1ccc(/C=N/NC(=O)Cc2ccc(Nc3ccnc(C(F)(F)F)c3)cc2)c(O)c1`
Solution: active

Exercise: Hi team, can someone confirm the assay call for `Cc1ccc(C(=O)Nc2cccc(C#Cc3cccc4[nH]nc(N)c34)c2)cc1C(F)(F)F` ?
Solution: inactive

---

- System: UACC-62 melanoma
- experiment: NCI-60 one-dose screen, 48 h (100 = growth as untreated, 0 = no growth, -100 = all killed)
- particulars: 10 µM unless noted
Compounds without any hit were thinned out: in the full panel of roughly 83,000, 20% have a hit.
growth strictly under 30% means 1; at 30% or over means 0.

Exercise: For this compound, is growth lower than 30%? `CNC(=O)c1cc(Oc2cccc3nc(NC(=O)Nc4cc(C(F)(F)F)ccc4Cl)ccc23)ccn1`
Solution: 0

Exercise: Lab note: confirm whether the reported growth for this compound is below 30%, equality not counting. compound: `COc1cc(-c2nc3sccn3c2-c2ccnc(NCCNS(=O)(=O)c3ccc(Cl)cc3)n2)ccc1F`
Solution: 1

Exercise: For this compound, is growth lower than 30%? `O=C(O)c1cn(C2CC2)c2cc(N3CCN(C(=O)Nc4nc(-c5ccc(Br)cc5)cs4)CC3)c(F)cc2c1=O`
Solution: 1

Exercise: Confirm or reject: growth of CN(C)CCCC1(c2ccc(F)cc2)OCc2cc(-c3ccc4cc[nH]c4c3)ccc21 (stereo not given) lies strictly below 30%
Solution: 0

Exercise: In plain terms, does `CCN(CC)c1ccc(/C=N/NC(=O)Cc2ccc(Nc3ccnc(C(F)(F)F)c3)cc2)c(O)c1` come in under 30% for growth?
Solution: 1

Exercise: Please state whether growth is below 30% for `C/C(Cc1ccc(Cl)cc1)=C(\c1ccc(OCCCN(C)C)cc1)c1ccc(OC(=O)Cc2ccccc2)cc1`
Solution: 0

Exercise: A record lists `CN(Cc1cc(Br)cc(Br)c1O)Cc1cc(Br)cc(Br)c1O` . Is its growth below 30%?
Solution: 1

Exercise: Bench note: check whether `CN(C)CCN1C(=O)c2cccc3c(/C=C/CN4C(=O)c5cccc6cccc(c56)C4=O)ccc(c23)C1=O` shows growth below 30%
Solution: 0

Exercise: Lab log: compare recorded growth with 30%; is it strictly lower for `CCn1c(-c2cc3c([nH]c4ccccc43)c(-c3cccc(O)c3)n2)n[nH]c1=S` ?
Solution: 0

Exercise: # check: growth < 30% for `CCN(CC)c1ccc(CNc2cc(C)nc3ccccc23)cc1`
Solution: 0

Exercise: growth strictly < 30% for this compound? CCCCCCCCCCCCCCCCCC1=NC(C)(C)CN1CC(C)O (stereo not given)
Solution: 0

Exercise: Is it true that growth reported for CC(C)N1C(=O)/C(=c2\sc3n(c2=O)C2C(NN=3)N(C)C(=O)N2C)c2ccccc21 (stereo not given) is less than 30%?
Solution: 0

Exercise: Here's an entry: CCCn1cnc2c(c1=N)C(c1ccc(F)cc1)c1sc3c(F)cccc3c1O2 (stereo not given) . Is its growth below 30%?
Solution: 1

Exercise: Item `Nn1c(=O)c(=O)[nH]c2c(cnn2-c2ccccc2)c1=O` : growth beneath 30%, strictly?
Solution: 0

Exercise: Please check: growth for `CCCCNc1nnc2n(Cc3ccccc3)c(=O)c3c4c(sc3n12)CCCC4` , strictly under 30% or not?
Solution: 0

Exercise: Decide: growth of `C/C=C(/C)n1cnc2c(Nc3ccccn3)nc(Cl)nc21` strictly below 30%?
Solution: 0

Exercise: Please state whether growth is below 30% for `Cc1c2cccnc2c(C)c2c1c1cc(CO)ccc1n2C`
Solution: 1

Exercise: Find out if reported growth for `Nc1ccc(-c2csc(-n3[nH]c(=O)ccc3=O)n2)cc1` is less than 30%
Solution: 0

Exercise: Lab note: growth threshold 30%. Does this compound come in strictly under it? `COC1=C(C)C(=O)N2[C@@H]1[C@H](c1ccccc1)OC21C=CC(=O)C=C1`
Solution: 1

Exercise: Determine whether this compound shows growth lower than 30% (ties excluded): `O=c1c2c3c(sc2n2c(-c4cc(-c5ccccc5)no4)nnc2n1Cc1ccccc1)CCCC3`
Solution: 0
